Molecular target: T1, human IL-1RAcP on 293T/17-FR cells (human, UniProt Q9NPH3 21-570)
T1 sequence (looked up): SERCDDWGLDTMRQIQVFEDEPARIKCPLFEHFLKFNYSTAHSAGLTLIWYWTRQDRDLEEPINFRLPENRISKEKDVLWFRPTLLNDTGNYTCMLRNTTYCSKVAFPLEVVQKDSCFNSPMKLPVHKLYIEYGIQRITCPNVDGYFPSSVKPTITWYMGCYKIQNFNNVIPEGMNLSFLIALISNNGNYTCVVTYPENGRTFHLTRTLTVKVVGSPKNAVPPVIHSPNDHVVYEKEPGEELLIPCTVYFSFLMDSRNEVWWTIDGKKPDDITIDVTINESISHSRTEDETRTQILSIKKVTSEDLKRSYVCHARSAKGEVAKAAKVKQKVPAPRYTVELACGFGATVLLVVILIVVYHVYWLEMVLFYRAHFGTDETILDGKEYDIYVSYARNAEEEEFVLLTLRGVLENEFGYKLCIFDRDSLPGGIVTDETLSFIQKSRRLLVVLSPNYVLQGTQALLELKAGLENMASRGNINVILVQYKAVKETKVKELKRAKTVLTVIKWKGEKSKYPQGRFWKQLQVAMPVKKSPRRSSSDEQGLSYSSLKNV
Test: cell-based or functional assay
Documented functional reporter gene assay (% inhibition), 0.2 µg/mL mAb across a set of binders
Assay readout: functional reporter gene assay (% inhibition), 0.2 µg/mL mAb (%)

Binder | Unit label | Reported measurement
P013.S.01.B.G04 (antibody, V domains shown, rabbit monoclonal antibody; also called P013.A.00013.G06) VH: QSVEESGGRLVTPGTPLTLTCTVSGFSLSVYAMGWFRQAPGKGLEWIGDIYIASDGTWYANWAKGRFTISKTSTTVDLKITSPTTEDTATYFCAREIDAGYVGYGFNLWGQGTLVTVSS VL: AQALTQTPSPVSAAVGGTVTINCQSSQSVYSDYLGWYQQKPGQPPKLLIYWASKLETGVPSRFKGSGSGTQFTLTISGVQSDDAATYYCQATYYGSGWYRAFGGGTEVVVK | % | 51
P013.S.02.B.G03 (antibody, V domains shown, rabbit monoclonal antibody; also called P013.A.00014.D07) VH: QSVEESGGRLVTPGTPLTLTCTVSGFSLSSYGMIWVRQAPGEGLEWIGFIGRGGATWYASWVKGRFTISKTSTTVDLKITSPTASDTATYFCARDGDSSDYYAFNLWGQGTLVTVSS VL: DVVMTQTPASVSEPVGGTVTIKCQASQNIGSNLAWYQQRSGQPPKLLIYGASTLASGVPSRFSGSGSGTEFTLTISGVQSADAATYFCQCSGYDITGVFPFGGGSEVVVK | % | 0
P013.S.01.B.G05 (antibody, V domains shown, rabbit monoclonal antibody; also called P013.A.00088.C10) VH: LEQSGGGAEGGLVKPGGSLELCCKASGFSLSSAYWICWVRQAPGKGLEWVGCIYADSSSITYYASWVNGRFTLSRDIDQSTGCLQLNSLTAADTAMYYCARDYGGSGYNFNLWGQGTLVTVSS VL: ALVMTQTPSPVSAAVGGTVTISCQASEDIYSNLAWYQQKRGQPPKLLIYYASTLASGVPSRFSGSGSGTEFTLTISGLQSDDAATYYCLGVCTYINANGWDNAFGGGTEVVVK | % | 50
